The reported measurements were obtained from PubChem BioAssay AID2060615.

# System: 496974-208-R-J2-PDC complex spheroids, growth % test/control;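 note: spheroids exposed to the drugs for 7 days before readout; 100% = DMSO vehicle control wells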
# Method notes: Anticancer human tumor 496974-208-R-J2-PDC patient-derived pancreatic carcinoma cell line growth inhibition [CLK]
# Particulars: second compound 0.1 µM; first compound 0.3 µM; stronger effect = lower value
Property: viability, T/C; scope: individual molecules
Kindly answer with a numeric value in %, unit omitted.

C=CC(=O)Nc1cc(Nc2nccc(-c3cn(C)c4ccccc34)n2)c(OC)cc1N(C)CCN(C)C + CN1CCN(c2cc(C(=O)Nc3cc4cc(-c5cnn(C)c5)ccc4cn3)ccn2)CC1 : 50

Entry CC(C)CC(NC(=O)C(Cc1ccccc1)NC(=O)c1cnccn1)B(O)O (stereo not given) + CN1CCN(c2cc(C(=O)Nc3cc4cc(-c5cnn(C)c5)ccc4cn3)ccn2)CC1 , tested on 496974-208-R-J2-PDC complex spheroids, growth % test/control, has a reported viability, T/C of 3.67

496974-208-R-J2-PDC complex spheroids, growth % test/control data for C=CC(=O)Nc1cc(Nc2nccc(-c3cn(C)c4ccccc34)n2)c(OC)cc1N(C)CCN(C)C + CNC(=O)c1ccc(Nc2nc(OC3CCCC3)c3c(-c4ccc5nc(C)oc5c4)c[nH]c3n2)c(OC)c1 ; its viability, T/C: 53.1

Form field viability, T/C for item NC(=O)C(=Cn1cnc(-c2cc(C(F)(F)F)cc(C(F)(F)F)c2)n1)c1cncnc1 + CNC(=O)c1ccc(Nc2nc(OC3CCCC3)c3c(-c4ccc5nc(C)oc5c4)c[nH]c3n2)c(OC)c1 on 496974-208-R-J2-PDC complex spheroids, growth % test/control: 27.9

Param item: NC(=O)C(=Cn1cnc(-c2cc(C(F)(F)F)cc(C(F)(F)F)c2)n1)c1cncnc1 + CN1CCN(c2cc(C(=O)Nc3cc4cc(-c5cnn(C)c5)ccc4cn3)ccn2)CC1 ; param system: 496974-208-R-J2-PDC complex spheroids, growth % test/control; output viability, T/C: 12.4
